target: recombinant human baculovirus-expressed GST-tagged FASN (Homo sapiens); construct: GST; test: biochemical
Sequence (P49327 whole entry): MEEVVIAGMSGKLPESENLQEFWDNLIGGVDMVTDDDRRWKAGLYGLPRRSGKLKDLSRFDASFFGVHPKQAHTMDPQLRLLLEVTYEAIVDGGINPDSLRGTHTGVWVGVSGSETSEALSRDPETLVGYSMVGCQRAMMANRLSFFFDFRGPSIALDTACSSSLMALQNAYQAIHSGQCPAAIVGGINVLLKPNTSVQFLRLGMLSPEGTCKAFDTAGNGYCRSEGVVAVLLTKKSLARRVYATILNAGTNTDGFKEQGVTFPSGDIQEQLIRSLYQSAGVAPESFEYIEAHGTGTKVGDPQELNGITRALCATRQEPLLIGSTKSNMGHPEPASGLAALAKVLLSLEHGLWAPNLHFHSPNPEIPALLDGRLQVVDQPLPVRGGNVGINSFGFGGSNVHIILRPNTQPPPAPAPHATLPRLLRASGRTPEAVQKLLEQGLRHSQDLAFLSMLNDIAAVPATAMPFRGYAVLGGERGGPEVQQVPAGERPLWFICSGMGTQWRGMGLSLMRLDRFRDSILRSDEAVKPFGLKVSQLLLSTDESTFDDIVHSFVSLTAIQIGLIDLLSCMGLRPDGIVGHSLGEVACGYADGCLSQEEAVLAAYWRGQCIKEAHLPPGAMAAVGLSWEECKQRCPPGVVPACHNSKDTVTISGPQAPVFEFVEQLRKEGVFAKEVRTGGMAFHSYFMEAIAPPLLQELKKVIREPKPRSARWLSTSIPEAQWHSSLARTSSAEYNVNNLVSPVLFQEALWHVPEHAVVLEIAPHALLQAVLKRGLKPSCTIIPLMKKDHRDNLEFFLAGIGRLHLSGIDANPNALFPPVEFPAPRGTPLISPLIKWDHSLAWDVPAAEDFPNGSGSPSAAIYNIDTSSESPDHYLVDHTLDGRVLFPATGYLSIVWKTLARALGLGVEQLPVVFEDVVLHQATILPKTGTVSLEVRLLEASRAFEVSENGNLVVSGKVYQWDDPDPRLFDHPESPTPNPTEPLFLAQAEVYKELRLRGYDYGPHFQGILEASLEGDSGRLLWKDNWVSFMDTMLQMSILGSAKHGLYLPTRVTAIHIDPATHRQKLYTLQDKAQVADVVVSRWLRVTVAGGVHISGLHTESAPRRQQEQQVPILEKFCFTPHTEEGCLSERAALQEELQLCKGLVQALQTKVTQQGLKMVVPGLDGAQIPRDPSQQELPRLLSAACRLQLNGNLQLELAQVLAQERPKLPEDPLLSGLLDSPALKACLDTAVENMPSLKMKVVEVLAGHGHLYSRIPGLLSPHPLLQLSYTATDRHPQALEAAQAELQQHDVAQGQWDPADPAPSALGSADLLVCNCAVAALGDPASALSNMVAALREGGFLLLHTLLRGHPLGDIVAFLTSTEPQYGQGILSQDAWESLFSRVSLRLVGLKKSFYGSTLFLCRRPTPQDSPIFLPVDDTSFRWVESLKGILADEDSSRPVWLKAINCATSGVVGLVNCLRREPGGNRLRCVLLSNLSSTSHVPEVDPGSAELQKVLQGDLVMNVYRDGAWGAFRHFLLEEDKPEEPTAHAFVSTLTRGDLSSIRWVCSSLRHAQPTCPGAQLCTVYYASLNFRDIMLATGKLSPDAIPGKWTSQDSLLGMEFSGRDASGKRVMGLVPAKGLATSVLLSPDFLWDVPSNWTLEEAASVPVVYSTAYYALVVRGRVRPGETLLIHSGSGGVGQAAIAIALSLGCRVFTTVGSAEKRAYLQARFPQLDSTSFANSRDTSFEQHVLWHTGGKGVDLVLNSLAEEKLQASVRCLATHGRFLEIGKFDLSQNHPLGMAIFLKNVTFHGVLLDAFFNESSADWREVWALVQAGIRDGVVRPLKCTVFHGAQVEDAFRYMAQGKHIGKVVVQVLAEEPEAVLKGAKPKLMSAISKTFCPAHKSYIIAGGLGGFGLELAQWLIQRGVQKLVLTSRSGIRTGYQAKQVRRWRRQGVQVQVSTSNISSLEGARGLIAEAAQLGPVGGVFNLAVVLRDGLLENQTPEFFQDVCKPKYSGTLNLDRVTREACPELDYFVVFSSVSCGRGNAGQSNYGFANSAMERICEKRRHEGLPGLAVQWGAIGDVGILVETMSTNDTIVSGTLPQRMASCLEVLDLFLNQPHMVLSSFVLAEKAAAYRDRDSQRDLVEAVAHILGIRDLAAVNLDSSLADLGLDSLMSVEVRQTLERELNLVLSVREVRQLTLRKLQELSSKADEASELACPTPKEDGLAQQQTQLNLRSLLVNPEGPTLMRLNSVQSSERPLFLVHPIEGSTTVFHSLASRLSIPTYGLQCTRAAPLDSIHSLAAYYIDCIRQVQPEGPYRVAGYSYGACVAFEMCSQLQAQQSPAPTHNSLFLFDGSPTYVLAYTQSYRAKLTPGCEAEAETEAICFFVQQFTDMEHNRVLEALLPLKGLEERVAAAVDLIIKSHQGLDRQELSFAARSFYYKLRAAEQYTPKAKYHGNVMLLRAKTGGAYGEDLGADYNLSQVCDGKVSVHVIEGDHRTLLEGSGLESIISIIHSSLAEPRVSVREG
Where a name gives a salt, the structure may show the parent alone.
Item-by-item account of IC50

Some entries whose results are on file:
O=C(NO)N1CCC2(CC1)OCc1cc(-c3ccc4cccnc4c3Cl)ccc1O2 [Example 136]
100 to 999 nM
CCOC(=O)N1CCC2(CC1)OCc1cc(-c3cnc4cccnc4c3)ccc1O2 [Example 35]
1000 to 10000 nM
CONC(=O)N1CCC2(CC1)OCc1cc(-c3ccc4ccnn4c3C)ccc1O2 [Example 128]
1 to 99 nM
CCNC(=O)N1CCC2(CC1)OCc1cc(-c3ccc4c(C)nccc4c3)ccc1O2 [Example 197]
1 to 99 nM
O=C(C1CC1)N1CCC2(CC1)OCc1cc(-c3ccc4cccnc4c3Cl)ccc1O2 [Example 58]
1 to 99 nM
CCONC(=O)N1CCC2(CC1)OCc1cc(-c3cnc4ccccc4c3C)ccc1O2 [Example 139]
1 to 99 nM
O=C(C1CC1)N1CCC2(CC1)OCc1cc(-c3cccnc3)ccc1O2 [Example 225, HCl]
1000 to 10000 nM
Cc1c(-c2ccc3c(c2)COC2(CCN(C(N)=O)CC2)O3)ccc2ccnn12 [Example 127]
100 to 999 nM
O=C(NOC1CCCCO1)N1CCC2(CC1)OCc1cc(-c3cc4ccccc4cn3)ccc1O2 (centres unmarked) [Example 144]
100 to 999 nM
CCC(=O)N1CCC2(CC1)OCc1cc(-c3cnc4ccccc4c3C)ccc1O2 [Example 52]
1 to 99 nM

In the following, a different compound is considered.
Task item: Report IC50 for CCNC(=O)N1CCC2(CC1)OCc1cc(-c3ccc4ccnn4c3C)ccc1O2 [Example 126] please.
Reply: 1 to 99 nM
